Settings: in ethanol, 288.15 K
measure: solubility (mole fraction)

INPUT: Value lookup for solubility (mole fraction); key = C=C1CCN([C@H](C)[C@](O)(Cn2cncn2)c2ccc(F)cc2F)CC1
OUTPUT: 0.122

* * *

Conditions: in water, 303.15 K
measure: solubility (mole fraction)
# respond with the number and nothing more

INPUT: Value lookup for solubility (mole fraction); key = C=C1CCN([C@H](C)[C@](O)(Cn2cncn2)c2ccc(F)cc2F)CC1
OUTPUT: 2.29e-06

* * *

Conditions: in ethyl acetate, 288.15 K
measure: solubility (mole fraction)
# respond with the number and nothing more

INPUT: Value lookup for solubility (mole fraction); key = C=C1CCN([C@H](C)[C@](O)(Cn2cncn2)c2ccc(F)cc2F)CC1
OUTPUT: 0.231
